Assay: Quantitative High-Throughput drug screen in 47 multiple myeloma cell lines against the NCATS MIPE library collection: MM1S_ATCC cell viability assay (AID 1918980); also: nearly all actives have a fitted effect of over 45% in size
Settings: MM1S myeloma viability, CellTiter-Glo ATP luminescence, 48 h; series mostly up to 45.8 µM
Records with an inconclusive call do not appear. Activity calls are given as the source filed them. Calls follow the shape of the dose curve; as a rule, active = well fitted cell-killing curve with a large enough effect; inconclusive = small, poorly fitted or top-dose-only effect, or effect the other way; inactive = no such curve, though single readings can be large or run the other way.
Classes used: active, inactive

> print(dat)
                                    compound  group.label
 1                       NCC1(CC(=O)O)CCCCC1     inactive
 2  CC(O)(CS(=O)(=O)c1ccc(F)cc1)C(=O)Nc1ccc(C#N)c(C(F)(F)F)c1 (stereo unspecified)       active
 3  COC[C@H]1OC(=O)c2coc3c2[C@@]1(C)C1=C(C3=O)C2CCC(=O)[C@@]2(C)C[C@H]1OC(C)=O (stereo partly specified)       active
 4  Cn1cc(C2=C(c3cn(C4CCN(Cc5ccccn5)CC4)c4ccccc34)C(=O)NC2=O)c2ccccc21       active
 5  CN1CCN(C(=O)O[C@H]2c3nccnc3C(=O)N2c2ccc(Cl)cn2)CC1     inactive
 6    Cn1c(CCCC(=O)O)nc2cc(N(CCCl)CCCl)ccc21       active
 7   CNCC(O)c1ccc(O)cc1 (stereo unspecified)       active
 8  O=C(O)C(=O)c1cn(Cc2ccccc2)c2ccc(-c3ccc(OC(F)(F)F)cc3)cc12       active
 9  CNC(=O)N1N=C(c2ccc(N)cc2)c2cc3c(cc2CC1C)OCO3 (stereo unspecified)       active
10     N[C@@H](Cc1ccc(N(CCCl)CCCl)cc1)C(=O)O       active
11  O=C1CC[C@@]2(O)[C@H]3Cc4ccc(O)c5c4[C@@]2(CCN3CC2CC2)[C@H]1O5     inactive
12  C=C(C)[C@H]1Cc2c(ccc3c2O[C@@H]2COc4cc(OC)c(OC)cc4[C@@H]2C3=O)O1       active
13  Cc1cc(SCc2sc(-c3ccc(C(F)(F)F)c(F)c3)nc2C)ccc1OCC(=O)O       active
14  CNC(=O)c1ccc(N2C(=S)N(c3ccc(C#N)c(C(F)(F)F)c3)C(=O)C23CCC3)cc1F       active
15                        CN(C)CCc1ccc(O)cc1     inactive
16  Fc1ccc(C(OCCN2CCN(CCCc3ccccc3)CC2)c2ccc(F)cc2)cc1       active

###

Assay: qHTS of pediatric cancer cell lines to identify multiple opportunities for drug repurposing: Confirmatory screen for TC32 cells (AID 1347118);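 also: cells exposed to compound for 48 h before the read; nearly all actives have a fitted effect of over 65% in size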
Conditions: TC32 Ewing sarcoma cells viability qHTS; series mostly up to 45.9 µM
Inconclusive results are not listed. Active and inactive are the calls of the source. Calls come from the whole dose curve; as a rule, active = well fitted cell-killing curve with a large enough effect; inconclusive = small, poorly fitted or top-dose-only effect; inactive = no such curve, though single readings can be large or run the other way.
Classes used: yes = active, no = inactive

compound	group label
C[C@H]1O[C@@H](O[C@H]2[C@@H](O)C[C@H](O[C@H]3[C@@H](O)C[C@H](O[C@H]4CC[C@@]5(C)[C@H](CC[C@@H]6[C@@H]5CC[C@]5(C)[C@@H](C7=CC(=O)OC7)CC[C@]65O)C4)O[C@@H]3C)O[C@@H]2C)C[C@H](O)[C@@H]1O	yes
N[C@@H](Cc1ccc(N(CCCl)CCCl)cc1)C(=O)O	yes
Cc1sc2c(c1C)C(c1ccc(Cl)cc1)=N[C@@H](CC(=O)OC(C)(C)C)c1nnc(C)n1-2	yes
O=P1(NCCCl)OCCCN1CCCl (stereo unspecified)	no
Cn1c(CCCC(=O)O)nc2cc(N(CCCl)CCCl)ccc21	yes
C[C@@H]1[C@@H](C(=O)C[C@H]2O[C@@H]3O[C@]4(C)CC[C@@H]5[C@H](C)CC[C@@H]([C@H]2C)[C@@]35OO4)O[C@@H]2O[C@]3(C)CC[C@H]4[C@H](C)CC[C@@H]1[C@@]24OO3	yes

###

Target: DNA dC->dU-editing enzyme APOBEC-3G (Homo sapiens)
Assay: qHTS for inhibitors of Vif-A3G interactions: Validation (AID 588379)
Conditions: Vif-A3G protein interaction assay; series mostly up to 46.1 µM
Calls of active or inactive are those of the source. Calls come from the whole dose curve; as a rule, active = well fitted inhibition curve with a large enough effect; inconclusive = small, poorly fitted or top-dose-only effect; inactive = flat fitted curve, though single readings scatter.
measurement label: outcome

> print(dat)
                                    compound                            assayed.target  reported.result
 1                                 Nc1ccncc1  DNA dC->dU-editing enzyme APOBEC-3G (Homo sapiens)         inactive
 2             CN(C)CCN(C)CCc1ccc(Cl)c(Cl)c1  DNA dC->dU-editing enzyme APOBEC-3G (Homo sapiens)         inactive
 3                                  NN=C(N)N  DNA dC->dU-editing enzyme APOBEC-3G (Homo sapiens)         inactive
 4  C=C(C)[C@H]1Cc2c(ccc3c2O[C@@H]2COc4cc(OC)c(OC)cc4[C@@H]2C3=O)O1  DNA dC->dU-editing enzyme APOBEC-3G (Homo sapiens)         inactive
 5  COC1(CS(=O)c2ccccc2)CCN(CCc2c[nH]c3ccc(F)cc23)CC1 (stereo not drawn)  DNA dC->dU-editing enzyme APOBEC-3G (Homo sapiens)         inactive
 6                       NCC1(CC(=O)O)CCCCC1  DNA dC->dU-editing enzyme APOBEC-3G (Homo sapiens)         inactive
 7               c1ccc(C2CC2)c(OCC2=NCCN2)c1  DNA dC->dU-editing enzyme APOBEC-3G (Homo sapiens)         inactive
 8                 C#CCN(C)[C@H](C)Cc1ccccc1  DNA dC->dU-editing enzyme APOBEC-3G (Homo sapiens)         inactive
 9  Fc1ccc(C(OCCN2CCN(CCCc3ccccc3)CC2)c2ccc(F)cc2)cc1  DNA dC->dU-editing enzyme APOBEC-3G (Homo sapiens)         inactive
10                NP(N)(=O)NC(=O)c1ccc(F)cc1  DNA dC->dU-editing enzyme APOBEC-3G (Homo sapiens)         inactive
11  CN1C[C@H](CNC(=O)OCc2ccccc2)C[C@@H]2c3cccc4c3c(cn4C)C[C@H]21  DNA dC->dU-editing enzyme APOBEC-3G (Homo sapiens)         inactive
12        CCCN1CCC[C@@H]2Cc3[nH]ncc3C[C@H]21  DNA dC->dU-editing enzyme APOBEC-3G (Homo sapiens)         inactive
13                 N#CC(C#N)=Cc1ccc(O)c(O)c1  DNA dC->dU-editing enzyme APOBEC-3G (Homo sapiens)         inactive

###

Tested on: TAB113
Assay: qHTS profiling for inhibitors of Plasmodium falciparum proliferation (AID 504749); also: nearly all actives have a fitted effect of over 60% in size
Conditions: P. falciparum in erythrocytes, SYBR Green DNA, 72 h; series mostly up to 28.7 µM
Results filed as inconclusive are left out. Activity calls are given as the source filed them. The call rests on the fitted dose curve; in most records, active means well fitted inhibition curve with a large enough effect; inconclusive means small, poorly fitted or top-dose-only effect; inactive means flat fitted curve, though single readings scatter.
Classes used: y for active, n for inactive

> print(dat)
                                    compound  group.label
 1  CC(CCc1ccccc1)NC(C)C(O)c1ccc(O)cc1 (configuration not stated)            n
 2  CC(=O)[C@H]1CC[C@H]2[C@@H]3CC[C@H]4C[C@](C)(O)CC[C@]4(C)[C@H]3CC[C@]12C            n
 3  COc1ccc(C(=O)c2c(C)n(CCN3CCOCC3)c3ccccc23)cc1            n
 4     CCN(CC)CCOC(=O)C(O)(c1ccccc1)c1ccccc1            n
 5                          CC[N+](CC)(CC)CC            n
 6  CC[N+]1(C)CCCC(OC(=O)C(O)(c2ccccc2)c2ccccc2)C1 (configuration not stated)            n
 7       CN1C(=S)CN=C(c2ccccc2)c2cc(Cl)ccc21            n
 8                        CN(C)CCc1ccc(O)cc1            n
 9  CC1OC(C)OC(C)O1 (configuration not stated)            n
10               c1ccc(C2CC2)c(OCC2=NCCN2)c1            n
11                        COc1ccccc1N1CCNCC1            n
12  CC[C@@H](CO)NC(=O)[C@@H]1C=C2c3cccc4[nH]cc(c34)C[C@H]2N(C)C1            n
13                      Clc1cccc(N2CCNCC2)c1            n
14                    c1ccc2c(c1)Nc1ccccc1S2            n
15            CC(=O)Nc1cc([As](=O)(O)O)ccc1O            n
16  FC(F)(F)c1cccc(C2=CCN(CCc3ccc4ccccc4c3)CC2)c1            n
17  O=C1NCN(c2ccccc2)C12CCN(CC1COc3ccccc3O1)CC2 (configuration not stated)            n
18          CCOP(=S)(OCC)Oc1cc(C)nc(C(C)C)n1            n
19  Fc1ccc(C(OCCN2CCN(CCCc3ccccc3)CC2)c2ccc(F)cc2)cc1            y
20                                  NN=C(N)N            n
21  CC(C)NCC(O)c1ccccc1Cl (configuration not stated)            y
22  CN1C[C@H](CNC(=O)OCc2ccccc2)C[C@@H]2c3cccc4c3c(cn4C)C[C@H]21            y
23  CC(=O)[C@H]1CC[C@H]2[C@@H]3CC[C@H]4C[C@H](O)CC[C@]4(C)[C@H]3C(=O)C[C@]12C            n
24                        Oc1ccccc1-c1ccccc1            n
25                                 Nc1ccncc1            n
26                        NCCc1cc(O)c(O)cc1O            n
27                           Oc1cccc2cccnc12            n
